The molecules listed here are annotated with their pIC50.
# target.under.test: VLA-4-IgG chimeric protein (Homo sapiens, UniProt P05556+P13612)
# Sequence (P13612 with tags, fused parts or gaps limits assumed): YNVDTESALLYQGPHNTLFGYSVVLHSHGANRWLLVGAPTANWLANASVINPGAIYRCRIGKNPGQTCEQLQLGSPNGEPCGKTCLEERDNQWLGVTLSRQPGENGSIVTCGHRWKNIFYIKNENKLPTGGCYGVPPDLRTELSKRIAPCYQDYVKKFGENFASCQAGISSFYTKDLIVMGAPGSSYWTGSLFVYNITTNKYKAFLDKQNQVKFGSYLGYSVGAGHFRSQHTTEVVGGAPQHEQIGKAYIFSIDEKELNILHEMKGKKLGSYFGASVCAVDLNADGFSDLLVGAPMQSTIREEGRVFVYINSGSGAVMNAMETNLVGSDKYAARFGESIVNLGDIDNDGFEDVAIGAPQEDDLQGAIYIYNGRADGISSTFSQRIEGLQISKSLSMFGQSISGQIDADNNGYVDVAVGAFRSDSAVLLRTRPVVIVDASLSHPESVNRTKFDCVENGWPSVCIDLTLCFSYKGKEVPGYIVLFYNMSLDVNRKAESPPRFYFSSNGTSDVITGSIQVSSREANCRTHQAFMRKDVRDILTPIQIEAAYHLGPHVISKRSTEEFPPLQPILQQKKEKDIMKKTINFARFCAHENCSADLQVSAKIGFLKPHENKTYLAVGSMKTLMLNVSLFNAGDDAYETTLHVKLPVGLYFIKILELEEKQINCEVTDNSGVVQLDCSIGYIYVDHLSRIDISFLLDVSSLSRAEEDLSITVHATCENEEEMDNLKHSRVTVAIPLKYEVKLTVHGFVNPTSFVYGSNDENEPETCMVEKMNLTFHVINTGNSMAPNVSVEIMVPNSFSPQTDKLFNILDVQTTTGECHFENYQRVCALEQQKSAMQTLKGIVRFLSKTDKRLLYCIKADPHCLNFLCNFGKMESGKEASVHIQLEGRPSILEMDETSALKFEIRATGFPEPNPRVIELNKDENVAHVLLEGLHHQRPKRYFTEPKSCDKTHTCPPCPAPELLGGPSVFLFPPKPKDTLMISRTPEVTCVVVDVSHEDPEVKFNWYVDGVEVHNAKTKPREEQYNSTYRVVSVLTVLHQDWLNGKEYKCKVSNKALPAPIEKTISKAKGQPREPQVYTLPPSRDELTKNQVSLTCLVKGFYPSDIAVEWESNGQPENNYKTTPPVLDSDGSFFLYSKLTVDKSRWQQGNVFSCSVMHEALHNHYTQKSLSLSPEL
# Sequence (P05556 with tags, fused parts or gaps limits assumed): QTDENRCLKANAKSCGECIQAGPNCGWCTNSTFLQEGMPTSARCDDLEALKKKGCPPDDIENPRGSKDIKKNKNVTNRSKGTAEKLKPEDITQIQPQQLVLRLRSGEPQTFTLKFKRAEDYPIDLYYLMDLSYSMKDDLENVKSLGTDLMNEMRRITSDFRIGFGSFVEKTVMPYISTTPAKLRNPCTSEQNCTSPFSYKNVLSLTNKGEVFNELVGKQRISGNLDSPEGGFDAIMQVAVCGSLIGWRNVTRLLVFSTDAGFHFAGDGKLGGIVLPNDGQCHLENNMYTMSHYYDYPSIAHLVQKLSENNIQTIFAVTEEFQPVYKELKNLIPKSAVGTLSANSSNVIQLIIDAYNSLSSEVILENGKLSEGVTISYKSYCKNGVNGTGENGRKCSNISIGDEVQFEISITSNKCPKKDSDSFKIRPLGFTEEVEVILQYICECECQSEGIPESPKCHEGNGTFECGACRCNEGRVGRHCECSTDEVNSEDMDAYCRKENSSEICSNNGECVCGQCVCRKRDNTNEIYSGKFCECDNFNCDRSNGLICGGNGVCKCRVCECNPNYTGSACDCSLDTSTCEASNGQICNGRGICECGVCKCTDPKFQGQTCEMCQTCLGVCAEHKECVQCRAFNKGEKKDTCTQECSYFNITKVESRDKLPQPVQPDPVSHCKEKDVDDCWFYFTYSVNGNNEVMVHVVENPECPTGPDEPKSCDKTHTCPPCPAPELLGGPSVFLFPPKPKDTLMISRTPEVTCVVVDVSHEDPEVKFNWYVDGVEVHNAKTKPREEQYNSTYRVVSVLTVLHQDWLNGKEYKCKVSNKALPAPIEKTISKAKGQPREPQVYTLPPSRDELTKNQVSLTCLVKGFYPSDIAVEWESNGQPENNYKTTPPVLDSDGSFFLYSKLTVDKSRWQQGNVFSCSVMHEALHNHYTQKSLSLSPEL
# assay.overview: Inhibition of binding between CS-1 peptide and VLA-4-IgG chimeric protein
# Protocol: The adhesion-inhibition activity of the compound of the present invention against VLA-4 may be examined by using an adhesion assay system in which the adhesion between VLA-4-expressing cells such as Ramos cells and Jurkat cells, and fibronectin or a fragment thereof, e.g., a peptide containing CS-1 sequence (Gly Pro Glu Ile Leu Asp Val Pro Ser Thr) (hereinafter referred to as "CS-1 peptide") immobilized on an immunoplate is measured. […]
pIC50: −log10 of the molar value.
endpoint.label: pIC50

                                   molecule                         target_under_test  endpoint_label  value
0  CC(C)CC(C(=O)NCCCSC[C@H](NC(=O)CC(C)(C)C)C(=O)O)c1ccc(O)cc1 (some centres unmarked) [Example 19]  VLA-4-IgG chimeric protein (Homo sapiens, UniProt P05556+P13612)           pIC50   6.30
1  CC(C)CC(C(=O)N[C@@H](CCSC[C@H](NC(=O)CC(C)(C)C)C(=O)O)C(=O)O)c1ccc(O)cc1 (some centres unmarked) [Example 14]  VLA-4-IgG chimeric protein (Homo sapiens, UniProt P05556+P13612)           pIC50   6.30
2  O=C(O)CCc1ccc(C[C@H](NC(=O)c2c(Cl)cccc2Cl)C(=O)O)cc1 [Example 161]  VLA-4-IgG chimeric protein (Homo sapiens, UniProt P05556+P13612)           pIC50   7.19
3  CC(C)CC(C(=O)N[C@@H](CSSC[C@H](NC(=O)CC(C)(C)C)C(=O)O)C(=O)O)c1ccc(O)cc1 (some centres unmarked) [Example 62]  VLA-4-IgG chimeric protein (Homo sapiens, UniProt P05556+P13612)           pIC50   7.05
4  CC(C)CC(C(=O)N[C@@H](CCSC[C@H](NC(=O)C(CC(C)C)c1ccc(O)cc1)C(=O)O)C(=O)O)c1ccc(O)cc1 (some centres unmarked) [Example 8]  VLA-4-IgG chimeric protein (Homo sapiens, UniProt P05556+P13612)           pIC50   6.70

====

# target.under.test: VLA-4-IgG chimeric protein (Homo sapiens, UniProt P05556+P13612)
# assay.overview: Inhibition of binding between CS-1 peptide and VLA-4-IgG chimeric protein
# test.context: binding of VLA-4-IgG chimeric protein to immobilized CS-1 peptide; compound preincubated 20 minutes; read-out: Inhibition Activity(IC50 : nM)
endpoint.label: log10 IC50 (log10 of the value in nM)

                                   compound  endpoint_label  value
0  CC(C)(C)CC(=O)N[C@@H](CSSC[C@H](NC(=O)CC(C)(C)C)C(=O)O)C(=O)O      log10 IC50   3.26
1  CC(C)C[C@H](NC(=O)Cc1ccc(NC(=O)Nc2ccccc2)cc1)C(=O)N[C@@H](CCSC[C@H](NC(=O)CC(C)(C)C)C(=O)O)C(=O)O      log10 IC50   1.11
2  CC(C)CC(C(=O)NC(Cc1ccc(CCC(=O)O)cc1)C(=O)O)c1ccc(O)cc1 (single isomer, unassigned)      log10 IC50   2.20
3  COc1cccc(OC)c1C(=O)NCCCC(NC(=O)c1c(Cl)cccc1Cl)C(=O)O (centres unmarked)      log10 IC50   1.11
4  CC(C)CC(NC(=O)CCc1ccc(CC(NC(=O)CC(C)(C)C)C(=O)O)cc1)c1ccc(O)cc1 (centres unmarked)      log10 IC50   3.26
5  CC(C)C[C@H](OCc1ccccc1)C(=O)N[C@@H](Cc1ccc(OCC(C)(C)C)cc1)C(=O)O      log10 IC50   2.70
6  O=C(NC(CCCCC(NC(=O)c1c(Cl)cccc1Cl)C(=O)O)C(=O)O)c1c(Cl)cccc1Cl (centres unmarked)      log10 IC50   2.63
7  CC(C)C[C@H](NC(=O)Cc1ccc(NC(=O)Nc2ccccc2)cc1)C(=O)N[C@@H](Cc1ccc(CCC(=O)O)cc1)C(=O)O      log10 IC50   2.89
